Biological target: UniProtKB P06213
Sequence (P06213 28-758 limits assumed): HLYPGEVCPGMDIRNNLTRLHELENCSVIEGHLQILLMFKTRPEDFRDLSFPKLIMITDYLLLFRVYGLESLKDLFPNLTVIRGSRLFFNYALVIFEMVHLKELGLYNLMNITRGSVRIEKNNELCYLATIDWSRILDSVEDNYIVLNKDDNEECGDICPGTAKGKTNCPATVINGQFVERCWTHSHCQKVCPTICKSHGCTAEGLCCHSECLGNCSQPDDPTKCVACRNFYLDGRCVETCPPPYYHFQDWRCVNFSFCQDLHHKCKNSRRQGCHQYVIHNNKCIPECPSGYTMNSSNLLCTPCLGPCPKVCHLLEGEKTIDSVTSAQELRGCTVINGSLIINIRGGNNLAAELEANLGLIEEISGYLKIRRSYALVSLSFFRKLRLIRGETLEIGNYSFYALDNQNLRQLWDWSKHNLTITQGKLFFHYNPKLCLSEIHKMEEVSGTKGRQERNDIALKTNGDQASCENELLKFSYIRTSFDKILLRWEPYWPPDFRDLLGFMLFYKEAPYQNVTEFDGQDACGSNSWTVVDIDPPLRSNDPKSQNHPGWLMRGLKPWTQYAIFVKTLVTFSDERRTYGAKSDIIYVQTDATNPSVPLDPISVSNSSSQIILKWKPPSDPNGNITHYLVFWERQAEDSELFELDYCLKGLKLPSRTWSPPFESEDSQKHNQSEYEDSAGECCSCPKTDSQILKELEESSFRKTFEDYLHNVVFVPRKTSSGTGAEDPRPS
Sequence (P06213 763-1382 limits assumed): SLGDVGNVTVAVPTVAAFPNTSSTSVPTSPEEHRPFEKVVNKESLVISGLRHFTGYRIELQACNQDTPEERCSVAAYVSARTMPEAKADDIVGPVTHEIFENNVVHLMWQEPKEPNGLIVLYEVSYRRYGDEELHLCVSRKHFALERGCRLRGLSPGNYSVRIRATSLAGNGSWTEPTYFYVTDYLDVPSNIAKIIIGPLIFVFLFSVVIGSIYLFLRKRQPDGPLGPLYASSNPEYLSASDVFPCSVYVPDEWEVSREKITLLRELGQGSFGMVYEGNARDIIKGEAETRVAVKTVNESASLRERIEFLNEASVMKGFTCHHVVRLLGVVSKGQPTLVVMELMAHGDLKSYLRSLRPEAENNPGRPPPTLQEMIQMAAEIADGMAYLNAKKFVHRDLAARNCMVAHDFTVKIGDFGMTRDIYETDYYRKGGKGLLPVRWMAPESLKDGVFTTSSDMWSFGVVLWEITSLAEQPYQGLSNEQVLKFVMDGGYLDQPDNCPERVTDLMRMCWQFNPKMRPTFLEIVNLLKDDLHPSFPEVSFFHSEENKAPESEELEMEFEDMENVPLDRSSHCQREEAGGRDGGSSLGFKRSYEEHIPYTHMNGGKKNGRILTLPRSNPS
Assay: Inhibition of human recombinant activated IR (1005 to 1310 residues) using KKSRGDYMTMQIG as substrate after 40 mins by [gamma-33ATP]by radiometric scintillation counting analysis
pIC50: −log10 of the molar value.

[
  {
    "Structure as smiles": "CN(C)c1ccc(C(=O)Nc2cccc(NC(=O)COc3ccc4c(=O)ccoc4c3)c2)cc1",
    "pIC50": "< 5.00"
  }
]

----------
Target: G protein-coupled receptor kinase 6 (Homo sapiens)
Assay: Inhibition of recombinant full length human GRK6 using casein as substrate after 40 mins in presence of [gamma-33ATP] by radiometric scintillation counting analysis

[
  {
    "Structure as smiles": "CN(C)c1ccc(C(=O)Nc2cccc(NC(=O)COc3ccc4c(=O)ccoc4c3)c2)cc1",
    "IC50": "> 10 µM"
  }
]

----------
Molecular target: Death-associated protein kinase 2 (Homo sapiens)
Assay: Inhibition of recombinant full length human DAPK2 using Calmodulin as substrate incubated 40 mins in presence of [gamma-33ATP] by radiometric scintillation counting analysis

[
  {
    "Structure as smiles": "CN(C)c1ccc(C(=O)Nc2cccc(NC(=O)COc3ccc4c(=O)ccoc4c3)c2)cc1",
    "Measured on": "Death-associated protein kinase 2 (Homo sapiens)",
    "IC50": "> 10 µM"
  }
]

----------
Target: Tyrosine-protein kinase BTK (Homo sapiens)
Assay: Inhibition of recombinant full length human BTK using KVEKIGEGTYGVV substrate incubated for 40 mins in presence of [gamma-33ATP] by radiometric scintillation counting analysis

[
  {
    "Structure as smiles": "CN(C)c1ccc(C(=O)Nc2cccc(NC(=O)COc3ccc4c(=O)ccoc4c3)c2)cc1",
    "Measured on": "Tyrosine-protein kinase BTK (Homo sapiens)",
    "IC50": "> 10 µM"
  }
]

----------
Target: Calcium/calmodulin-dependent protein kinase type 1B (Homo sapiens)
Sequence (Q6P2M8 whole entry): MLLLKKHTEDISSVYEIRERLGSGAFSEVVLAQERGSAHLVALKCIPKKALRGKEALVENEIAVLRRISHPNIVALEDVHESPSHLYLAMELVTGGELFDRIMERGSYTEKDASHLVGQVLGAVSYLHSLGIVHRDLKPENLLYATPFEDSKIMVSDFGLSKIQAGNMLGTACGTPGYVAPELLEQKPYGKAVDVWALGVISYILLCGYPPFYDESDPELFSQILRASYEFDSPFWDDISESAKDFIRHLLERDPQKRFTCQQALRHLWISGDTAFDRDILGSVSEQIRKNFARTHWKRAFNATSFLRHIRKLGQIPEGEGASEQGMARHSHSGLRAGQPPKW
Experiment: Inhibition of recombinant full length human CaMK1beta using KKLRRTLSFAEP as substrate incubated for 40 mins in presence of [gamma-33ATP] by radiometric scintillation counting analysis

[
  {
    "Structure as smiles": "CN(C)c1ccc(C(=O)Nc2cccc(NC(=O)COc3ccc4c(=O)ccoc4c3)c2)cc1",
    "IC50": "> 10 µM"
  }
]

----------
Molecular target: Leucine-rich repeat serine/threonine-protein kinase 2 (Homo sapiens, UniProt Q5S007)
Sequence (Q5S007 whole entry): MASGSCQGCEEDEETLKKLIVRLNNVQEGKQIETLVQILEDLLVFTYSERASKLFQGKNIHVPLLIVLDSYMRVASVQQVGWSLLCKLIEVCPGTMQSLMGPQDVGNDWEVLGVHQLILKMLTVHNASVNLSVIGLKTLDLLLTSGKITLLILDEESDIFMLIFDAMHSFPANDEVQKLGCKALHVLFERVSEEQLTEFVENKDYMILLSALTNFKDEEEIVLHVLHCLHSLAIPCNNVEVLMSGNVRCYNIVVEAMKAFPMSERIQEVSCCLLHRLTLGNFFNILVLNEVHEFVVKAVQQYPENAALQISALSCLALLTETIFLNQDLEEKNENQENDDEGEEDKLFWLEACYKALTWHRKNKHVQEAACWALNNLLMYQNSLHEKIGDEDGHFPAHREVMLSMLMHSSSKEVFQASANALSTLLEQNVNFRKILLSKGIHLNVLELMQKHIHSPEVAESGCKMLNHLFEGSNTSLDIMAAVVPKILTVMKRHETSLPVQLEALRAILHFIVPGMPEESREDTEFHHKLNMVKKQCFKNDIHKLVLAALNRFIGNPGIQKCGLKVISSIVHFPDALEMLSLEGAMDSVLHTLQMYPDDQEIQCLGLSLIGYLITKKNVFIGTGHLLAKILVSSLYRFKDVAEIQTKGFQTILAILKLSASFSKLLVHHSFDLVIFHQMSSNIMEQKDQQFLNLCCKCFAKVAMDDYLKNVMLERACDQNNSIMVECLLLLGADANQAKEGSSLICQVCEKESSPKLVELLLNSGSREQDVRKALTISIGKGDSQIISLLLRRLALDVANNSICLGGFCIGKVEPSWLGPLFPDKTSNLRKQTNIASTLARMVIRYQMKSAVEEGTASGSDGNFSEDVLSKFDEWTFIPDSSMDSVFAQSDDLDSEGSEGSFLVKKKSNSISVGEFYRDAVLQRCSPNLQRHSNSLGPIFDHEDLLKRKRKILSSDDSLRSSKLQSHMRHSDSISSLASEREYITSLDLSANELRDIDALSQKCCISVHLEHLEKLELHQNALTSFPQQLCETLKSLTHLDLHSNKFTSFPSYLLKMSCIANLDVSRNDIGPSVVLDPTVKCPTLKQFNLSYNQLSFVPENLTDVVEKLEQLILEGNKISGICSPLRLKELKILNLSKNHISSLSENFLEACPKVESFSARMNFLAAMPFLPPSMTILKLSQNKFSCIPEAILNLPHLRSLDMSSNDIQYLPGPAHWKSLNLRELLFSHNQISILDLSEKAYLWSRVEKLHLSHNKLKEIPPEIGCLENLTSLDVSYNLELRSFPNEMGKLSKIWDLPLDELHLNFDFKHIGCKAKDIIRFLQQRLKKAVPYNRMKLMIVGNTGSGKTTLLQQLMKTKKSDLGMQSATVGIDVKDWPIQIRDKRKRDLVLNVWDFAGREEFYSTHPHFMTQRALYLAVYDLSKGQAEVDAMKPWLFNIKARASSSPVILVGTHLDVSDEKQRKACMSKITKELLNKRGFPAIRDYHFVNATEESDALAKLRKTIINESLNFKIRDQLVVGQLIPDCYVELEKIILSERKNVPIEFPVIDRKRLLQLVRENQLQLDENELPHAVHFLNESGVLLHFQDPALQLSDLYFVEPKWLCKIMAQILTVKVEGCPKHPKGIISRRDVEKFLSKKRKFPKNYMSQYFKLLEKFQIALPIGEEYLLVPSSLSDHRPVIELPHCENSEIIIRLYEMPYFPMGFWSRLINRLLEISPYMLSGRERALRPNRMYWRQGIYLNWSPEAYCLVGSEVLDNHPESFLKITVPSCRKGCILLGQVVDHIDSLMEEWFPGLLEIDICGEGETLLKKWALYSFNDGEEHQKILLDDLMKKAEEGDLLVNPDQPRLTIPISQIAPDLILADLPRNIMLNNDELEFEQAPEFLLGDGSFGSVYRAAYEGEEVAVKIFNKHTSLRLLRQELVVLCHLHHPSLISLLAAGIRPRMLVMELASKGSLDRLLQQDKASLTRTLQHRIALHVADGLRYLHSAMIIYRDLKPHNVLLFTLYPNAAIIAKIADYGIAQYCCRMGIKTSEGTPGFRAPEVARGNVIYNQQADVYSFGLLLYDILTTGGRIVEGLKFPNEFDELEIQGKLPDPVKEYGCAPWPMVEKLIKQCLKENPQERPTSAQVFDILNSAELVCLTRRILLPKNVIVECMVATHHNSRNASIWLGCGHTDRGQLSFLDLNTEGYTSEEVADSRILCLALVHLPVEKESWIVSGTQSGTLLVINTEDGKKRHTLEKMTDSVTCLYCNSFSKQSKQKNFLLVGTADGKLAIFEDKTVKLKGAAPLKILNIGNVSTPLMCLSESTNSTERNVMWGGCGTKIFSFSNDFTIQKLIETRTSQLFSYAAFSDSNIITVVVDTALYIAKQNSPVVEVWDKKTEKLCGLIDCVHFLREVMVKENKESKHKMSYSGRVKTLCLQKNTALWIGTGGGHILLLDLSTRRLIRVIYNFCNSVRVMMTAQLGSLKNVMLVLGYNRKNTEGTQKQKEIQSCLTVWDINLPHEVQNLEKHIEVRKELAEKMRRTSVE
Test: Inhibition of recombinant human LRRK2 (970 to end residues) using RLGRDKYKTLRQI as substrate after 40 mins in presence of [gamma-33ATP] by radiometric scintillation counting analysis
pIC50: −log10 of the molar value.
Endpoint: pIC50

[
  {
    "Structure as smiles": "CN(C)c1ccc(C(=O)Nc2cccc(NC(=O)COc3ccc4c(=O)ccoc4c3)c2)cc1",
    "Endpoint": "pIC50",
    "Result": "< 5.00"
  }
]

----------
Biological target: Serine/threonine-protein kinase tousled-like 1 (Homo sapiens, UniProt Q9UKI8)
Sequence (Q9UKI8 whole entry): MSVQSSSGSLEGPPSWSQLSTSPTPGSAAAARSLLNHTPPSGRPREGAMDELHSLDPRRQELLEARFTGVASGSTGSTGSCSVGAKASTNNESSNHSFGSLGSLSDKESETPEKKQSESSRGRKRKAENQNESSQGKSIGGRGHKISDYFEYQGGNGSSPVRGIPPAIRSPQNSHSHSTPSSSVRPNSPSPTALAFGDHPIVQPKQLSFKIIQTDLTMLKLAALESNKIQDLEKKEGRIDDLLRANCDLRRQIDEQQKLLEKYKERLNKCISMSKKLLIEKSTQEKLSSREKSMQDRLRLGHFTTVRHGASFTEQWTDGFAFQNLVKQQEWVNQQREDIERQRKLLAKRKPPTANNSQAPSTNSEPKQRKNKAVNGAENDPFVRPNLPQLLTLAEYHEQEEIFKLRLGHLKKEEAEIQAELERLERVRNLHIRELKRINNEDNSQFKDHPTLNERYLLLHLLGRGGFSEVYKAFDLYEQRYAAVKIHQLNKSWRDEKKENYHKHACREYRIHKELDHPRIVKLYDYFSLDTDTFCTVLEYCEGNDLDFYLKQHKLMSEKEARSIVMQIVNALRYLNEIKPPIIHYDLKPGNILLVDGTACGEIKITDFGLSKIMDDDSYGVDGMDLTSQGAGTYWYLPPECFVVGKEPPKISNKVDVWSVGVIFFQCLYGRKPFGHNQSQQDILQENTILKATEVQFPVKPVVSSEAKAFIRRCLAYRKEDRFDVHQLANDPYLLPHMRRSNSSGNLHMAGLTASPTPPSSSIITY
Assay: Inhibition of recombinant full-length human TLK1 using casein as substrate incubated for 40 mins in presence of [gamma33P]ATP by radiometric scintillation counting analysis
pIC50: −log10 of the molar value.

[
  {
    "Structure as smiles": "CN(C)c1ccc(C(=O)Nc2cccc(NC(=O)COc3ccc4c(=O)ccoc4c3)c2)cc1",
    "Measured on": "Serine/threonine-protein kinase tousled-like 1 (Homo sapiens, UniProt Q9UKI8)",
    "pIC50": "< 5.00"
  }
]
